In this section we review reported protein stability index values for a set of sequences.
# PROTOCOL DETAILS: protein stability index of a GFP-peptide fusion (GPS, HEK-293T) (PSI 1-6); higher = more stable;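 note: 24-mer peptide tiles fused after GFP, lentivirally expressed, FACS-sorted into six equal bins by GFP/DsRed ratio, decoded by Illumina sequencing, PSI is the read-weighted mean bin number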
# CONDITION PARAMETERS: treatment: DMSO; c terminus: a fixed tail appended
OBSERVABLE: protein stability index

# SEQ, OBSERVABLE, RESULT
measured = [
    ("HLDPGFLASDKTSAGNAPLNEEIN [C18orf25]", "protein stability index", 4.75),
    ("PLLCPGCQGQPQGKAVVSHSKGHK [ELOA2]", "protein stability index", 4.12),
    ("SQAPDGRRKSEAGSGAASSSGEDK [CDC25B]", "protein stability index", 5.65),
    ("LFLMDLSEGELGGPSEPGGTHPED [RHOBTB2]", "protein stability index", 4.45),
    ("YAHQPRTADEIPMEPGDIIGVAGN [FUT8]", "protein stability index", 4.2),
    ("RSQMQGPRTRARLGANEVLLVVGG [KLHL12]", "protein stability index", 2.39),
    ("IKGKSCRTITFEQFQEALEELAKK [TPPP]", "protein stability index", 2.53),
    ("ENVSVEMLLRKFAESKGTGREKPG [FCHO1]", "protein stability index", 3.9),
    ("YSLLYLEHKGWYSWVLSMLYGFLL [CLPTM1]", "protein stability index", 2.18),
    ("APPTPPEEEDLRRRLKYFFMSPCD [MCOLN1]", "protein stability index", 4.27),
    ("KARVLRSKSLCHDEIENLLDSDHR [CDC25B]", "protein stability index", 4.4),
    ("GAVIEVFGHRFIILDTDEYVLKYM [EFHC1]", "protein stability index", 2.5),
    ("LPWFRTLSWYFLLCVNYFFYGETV [CDS1]", "protein stability index", 3.08),
    ("GYSTHADFVLEMNTAKSTSRVTAF [NLN]", "protein stability index", 2.29),
    ("PPLWAASAAGHLDVVRSLLRRGAS [FEM1A]", "protein stability index", 3.55),
    ("KLENARLSSEMNTSTVNSAREELM [LMNB1]", "protein stability index", 4.59),
    ("STETLVHVSDEDNNADLCLTDDKQ [DLC1]", "protein stability index", 5.59),
    ("QAFCCENDINILRVSNPGRLAELL [GADD45A]", "protein stability index", 2.74),
    ("YHEAPMTRKHYQVTGYGINGTGDS [POMT2]", "protein stability index", 2.97),
    ("PAITATLLDFMCRIIPNFYPPLEG [INTS3]", "protein stability index", 3.07),
    ("EMHTSRDHSSQSEEEVVEGEKEVE [BNIP3L]", "protein stability index", 5.68),
    ("EFKAAFDMFDADGGGDISVKELGT [TNNC2]", "protein stability index", 4.16),
    ("GGFQMHYEKTPFDQLAFIEELFSL [EID1]", "protein stability index", 2.12),
    ("LIVHIALPSWADICTNLCEALQNF [M1AP]", "protein stability index", 3.02),
    ("VLSREQSRRSYDDQLRSGSPPKSP [DNAJC4]", "protein stability index", 5.29),
    ("KLRQMRVEKFIYENHPDVFSDSSM [MYOZ1]", "protein stability index", 2.43),
    ("HAGQGGLFYSAEVEMLCDQAWGSM [CCDC3]", "protein stability index", 2.53),
    ("DERIFSLTRRLAHGEELRVSARSR [HAGHL]", "protein stability index", 4.1),
    ("GDWLLTANGSEIHKHVHFSSSFTS [SLC22A15]", "protein stability index", 2.59),
    ("VQPCSAVHLLLKKVLFALCALNAL [FAM189A2]", "protein stability index", 2.26),
    ("LPFLAHALYVQAPTVTIEGFLQAL [TRIP13]", "protein stability index", 2.93),
    ("AEKNCMTFFEVSPLCNFNVIESFT [RAB40C]", "protein stability index", 2.3),
    ("FLSENATVAAETRAVIAWMEKIPF [CPXM2]", "protein stability index", 2.04),
    ("LLMIPWGSAAKLVCYFTNWAQYRQ [CHIT1]", "protein stability index", 3.04),
    ("HHSLASSLRSHHTHPSYGPPGVPP [DVL3]", "protein stability index", 3.51),
    ("QECLKQLAIKKQQHIDNITQIEDA [TRIM14]", "protein stability index", 4.93),
    ("SSFTWSVPSSGYGAVTASKHSNSP [SMTNL2]", "protein stability index", 3.82),
    ("IGCVFAELLTGQPLWPGKSDVDQL [CDKL4]", "protein stability index", 2.09),
    ("RYAEHVAATQALPQDSGTAAWKGR [C22orf31]", "protein stability index", 4.1),
    ("ANYVIVRAYQYTTLTSVQLLDCFG [SLC35F2]", "protein stability index", 3.21),
    ("PNHLGGGAVVLGAESHASKDVAID [STX5]", "protein stability index", 5.1),
    ("LSAFYLSYFDMLYPEDSSWAAKAP [SPDEF]", "protein stability index", 2.63),
    ("GLPGAEGVEPAPWAQLEAPARLLL [FANCE]", "protein stability index", 3.33),
    ("RDEESFFGERRIPRGRRISVICRS [ALKBH7]", "protein stability index", 3.24),
    ("LGDCMRTLGYMPTEMELLEVSQHI [CABP4]", "protein stability index", 2.46),
    ("KDYNNLWIIKKHNTNSDPLDPSFP [POMT2]", "protein stability index", 3.15),
    ("QPPPAPPKKIMPEAHSHYLYGHML [PPFIA4]", "protein stability index", 2.76),
    ("AEEGWSPTPKCLRLCFFPFVENGH [CFHR2]", "protein stability index", 1.96),
    ("GREKPGPLDFEAYSAAALQEAMKR [FCHO1]", "protein stability index", 4.21),
    ("VAITILQDDHDHKVQELMSTHELE [MTUS2]", "protein stability index", 3.3),
    ("VFPETAFIAVTSYQNHKITQLKIE [TBX5]", "protein stability index", 2.22),
    ("VGGTIRTCQKFLIQYNRRQLLILL [POP5]", "protein stability index", 2.96),
    ("MQGNQILVFPSSSSSSSSQAPGQP [ZBTB22]", "protein stability index", 4.28),
]
